B1: LINE1-full (parent)
chain: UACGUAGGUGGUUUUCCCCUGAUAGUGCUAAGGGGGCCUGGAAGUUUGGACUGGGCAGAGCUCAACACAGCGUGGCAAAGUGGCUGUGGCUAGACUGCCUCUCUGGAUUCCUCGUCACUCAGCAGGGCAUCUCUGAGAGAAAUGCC

variants of: B1; test: self-cleavage, relative activity (ratio to wild type); higher = more cleavage; in vitro, sequencing; the parent is a self-cleaving ribozyme
Item-by-item account of self-cleavage
Lab note: record the figure alone, no unit after it.

INSERT INTO assay_data (mutation_descriptor, recorded_endpoint, obs_value) VALUES
  ('U29G U85C', 'self-cleavage', 0.46),
  ('A50U A129U', 'self-cleavage', 1.12);

# input GET /values?readout=self-cleavage&item= A31U A124U
# output 1.42

# input GET /values?readout=self-cleavage&item= C113A A136G
# output 0.91

# input GET /values?readout=self-cleavage&item= G4A A64U
# output 0.72

# input GET /values?readout=self-cleavage&item= U20G A64U
# output 0.71

# input GET /values?readout=self-cleavage&item= A77U U134G
# output 1.47

# input GET /values?readout=self-cleavage&item= A77U U109A
# output 1.68

# input GET /values?readout=self-cleavage&item= C38U U73C
# output 1.76

# input GET /values?readout=self-cleavage&item= G74A U115C
# output 1.46

# input GET /values?readout=self-cleavage&item= U15C G127U
# output 1.23
